Reported values: IC50 for UniProtKB P51449, one per item.
Sequence (P51449 whole entry): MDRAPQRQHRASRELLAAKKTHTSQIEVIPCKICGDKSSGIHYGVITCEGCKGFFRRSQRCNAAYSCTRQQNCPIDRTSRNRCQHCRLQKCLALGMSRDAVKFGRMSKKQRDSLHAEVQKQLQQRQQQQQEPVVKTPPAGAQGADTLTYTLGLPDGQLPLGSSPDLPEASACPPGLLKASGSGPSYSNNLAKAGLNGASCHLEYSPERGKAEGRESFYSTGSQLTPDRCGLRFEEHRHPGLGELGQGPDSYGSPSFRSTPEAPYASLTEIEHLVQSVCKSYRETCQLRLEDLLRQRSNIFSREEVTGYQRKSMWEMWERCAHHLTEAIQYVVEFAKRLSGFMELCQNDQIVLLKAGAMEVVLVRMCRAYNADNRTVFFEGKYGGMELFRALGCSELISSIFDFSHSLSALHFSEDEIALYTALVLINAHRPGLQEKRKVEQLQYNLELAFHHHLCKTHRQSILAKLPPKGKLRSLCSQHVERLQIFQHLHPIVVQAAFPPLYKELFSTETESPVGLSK
READOUT LABEL: IC50 (nM)

# MOLECULE, IC50, nM
measured = [
    ("O=C(O)c1ccc(Nc2nc(Oc3c(Cl)cccc3Cl)nc(C3CCCC3)n2)cc1", 3420),
    ("COc1ccc(-c2nc(Nc3ccc(C(N)=O)cc3)nc(Oc3c(Cl)cccc3Cl)n2)cc1", 13.3),
    ("COc1ccc(-c2nc(Nc3ccc(C(=O)O)c(O)c3)nc(Oc3c(Cl)cccc3Cl)n2)cc1", 83),
    ("COc1ccc(-c2nc(Nc3ccc(C(C)C(=O)O)cc3)nc(Oc3c(Cl)cccc3Cl)n2)cc1 (configuration not stated)", 99.5),
    ("Cc1ccc(-c2nc(Nc3ccc(C(=O)O)cc3)nc(Oc3c(Cl)cccc3Cl)n2)cc1", 61.7),
    ("Cc1cccc(-c2nc(Nc3ccc(C(=O)O)cc3)nc(Oc3c(Cl)cccc3Cl)n2)c1", 241),
    ("CNC(=O)c1ccc(Nc2nc(Oc3c(Cl)cccc3Cl)nc(-c3ccc(OC)cc3)n2)cc1", 12.9),
    ("CNC(=O)c1ccc(Nc2nc(Oc3c(Cl)cccc3Cl)nc(-c3ccc(C(F)(F)F)cc3)n2)cc1", 22.5),
]

A = COc1ccc(-c2nc(NC3CCC(C(=O)O)C3)nc(Oc3c(Cl)cccc3Cl)n2)cc1 (configuration not stated)
B = O=C(O)c1ccc(Nc2nc(Oc3c(Cl)cccc3Cl)nc(-c3ccc(C(F)(F)F)cc3)n2)cc1
Query :: Could you tell me which of these two has the smaller IC50 figure? First: A Second: B I would appreciate it if you answered with the label of your choice.
Result :: B

A = COc1ccc(-c2nc(Nc3cccc(C(=O)O)c3)nc(Oc3c(Cl)cccc3Cl)n2)cc1
B = CNS(=O)(=O)c1ccc(Nc2nc(Oc3c(Cl)cccc3Cl)nc(-c3ccc(OC)cc3)n2)cc1
C = O=C(O)c1ccc(Nc2nc(Oc3c(Cl)cccc3Cl)nc(-c3ccc(F)cc3)n2)cc1
D = O=C(O)c1ccc(Nc2nc(Oc3c(Cl)cccc3Cl)nc(C3CCCCC3)n2)cc1
E = CNC(=O)c1ccc(Nc2nc(Oc3c(Cl)cccc3C(F)(F)F)nc(-c3ccc(OC)cc3)n2)cc1
Query :: Sort entries by IC50 from minimum to maximum value. Please list each label once, in the requested order.
Result :: E, B, A, C, D
(E: 16.7 nM, B: 32.5 nM, A: 91 nM, C: 152 nM, D: 596 nM)

a = CC(C)(C)c1ccc(-c2nc(Nc3ccc(C(=O)O)cc3)nc(Oc3c(Cl)cccc3Cl)n2)cc1
b = CC(=O)Nc1ccc(Nc2nc(Oc3c(Cl)cccc3C(F)(F)F)nc(-c3ccc(C(F)(F)F)cc3)n2)cc1
Query :: From the recorded data, which exceeds the other in IC50: a or b ? I would appreciate it if you answered with the label of your choice.
Result :: a
(a: 99.5 nM, b: 32 nM)

----------
assay: Half life in mouse liver microsomes at 1 mM in presence of NADPH by HPLC-MS/MS analysis; set-up: dose or concentration left out as unconfirmed
READOUT LABEL: half-life (min)
Reply numerically in min, unit not repeated.

Query :: I am curious: what half-life value has been reported for CC(=O)Nc1ccc(Nc2nc(Oc3c(Cl)cccc3C(F)(F)F)nc(-c3ccc(C(F)(F)F)cc3)n2)cc1 ?
Result :: 17.8
